Each recorded value in this set is attributed to ChEMBL document CHEMBL3232748.

biological target: Mu-type opioid receptor (Homo sapiens) (UniProt P35372); experiment: Antagonist activity at human mu opioid receptor expressed CHO cells assessed as inhibition of [35S]-GTP[gammaS] binding at 10 uM; assay type: cell-based
Sequence (P35372 whole entry): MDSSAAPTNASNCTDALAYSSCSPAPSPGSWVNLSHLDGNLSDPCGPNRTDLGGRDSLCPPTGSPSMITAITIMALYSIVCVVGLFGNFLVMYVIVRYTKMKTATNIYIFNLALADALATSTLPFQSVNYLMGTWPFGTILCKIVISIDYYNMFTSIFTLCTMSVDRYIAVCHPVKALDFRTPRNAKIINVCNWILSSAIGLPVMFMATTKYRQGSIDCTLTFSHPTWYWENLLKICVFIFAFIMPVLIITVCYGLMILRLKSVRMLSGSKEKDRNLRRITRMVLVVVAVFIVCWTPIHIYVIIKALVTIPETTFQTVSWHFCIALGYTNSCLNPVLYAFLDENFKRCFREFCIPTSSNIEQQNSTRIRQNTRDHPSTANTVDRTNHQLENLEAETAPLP
Calls of active or inactive are those of the source. The rule behind the calls is not given here.

{"compound": "Oc1cccc(C2CCN(CCCc3ccccc3)CC2)c1", "Activity": "inactive"}
{"compound": "CC1CN(CCCc2ccccc2)CCC1c1cccc(O)c1 (centres undefined)", "Activity": "inactive"}
{"compound": "CC1(c2cccc(O)c2)CCN(CCCc2ccccc2)CC1", "Activity": "inactive"}
{"compound": "CN1CCC(c2cccc(O)c2)CC1", "Activity": "inactive"}
